Source: ChEMBL document CHEMBL3112446

- Test system: Staphylococcus aureus
- ASSAY_INFO: Inhibition of methicillin-resistant Staphylococcus aureus pyruvate kinase at 10 uM
Listing: inhibition of selected compounds
Quick note: number first, unit second.

Exercise: # query: inhibition of entry O=[N+]([O-])c1cc(-c2cc3ccccc3[nH]2)ccc1-c1cc2ccc(Br)cc2[nH]1
Key: 86.2%

====

- TARGET_OR_TEST_SYSTEM: UniProt:P30613
- Sequence (P30613 whole entry, looked up): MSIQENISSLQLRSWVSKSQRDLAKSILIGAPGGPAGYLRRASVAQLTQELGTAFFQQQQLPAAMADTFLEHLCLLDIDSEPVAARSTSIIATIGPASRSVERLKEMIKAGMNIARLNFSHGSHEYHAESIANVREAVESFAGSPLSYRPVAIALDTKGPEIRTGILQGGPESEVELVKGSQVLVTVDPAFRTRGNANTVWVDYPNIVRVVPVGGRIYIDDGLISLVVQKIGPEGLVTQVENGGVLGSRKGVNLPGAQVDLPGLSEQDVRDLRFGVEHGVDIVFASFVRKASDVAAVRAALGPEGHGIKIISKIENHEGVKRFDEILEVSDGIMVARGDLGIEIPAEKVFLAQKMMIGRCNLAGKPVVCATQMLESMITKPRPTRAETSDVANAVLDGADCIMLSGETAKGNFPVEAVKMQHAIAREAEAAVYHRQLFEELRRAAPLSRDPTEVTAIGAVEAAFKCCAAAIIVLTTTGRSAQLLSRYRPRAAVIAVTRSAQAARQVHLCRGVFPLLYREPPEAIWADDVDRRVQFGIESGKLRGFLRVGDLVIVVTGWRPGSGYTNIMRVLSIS
- ASSAY_INFO: Inhibition human pyruvate kinase R at 10 uM
Please note: met applies when inhibition is 30% or greater, and not met applies otherwise.

Brc1ccc2[nH]c(C#Cc3cc4ccc(Br)cc4[nH]3)cc2c1 ... not met

Exercise: Textbook exercise: given the entry Brc1ccc2cc(CCc3cc4ccc(Br)cc4[nH]3)[nH]c2c1 , state whether its inhibition is greater than or equal to 30%.
Key: not met

Exercise: Textbook exercise: given the entry Brc1cc2cc(-c3cc4cc(Br)c(Br)cc4[nH]3)[nH]c2cc1Br , state whether its inhibition is greater than or equal to 30%.
Key: not met

Exercise: Textbook exercise: given the entry Brc1ccc2cc(-c3cc4cc(Br)c(Br)cc4[nH]3)[nH]c2c1 , state whether its inhibition is greater than or equal to 30%.
Key: met

Exercise: Textbook exercise: given the entry OCCn1c(-c2cc3ccc(Br)cc3[nH]2)cc2cc(Br)ccc21 , state whether its inhibition is greater than or equal to 30%.
Key: not met

====

- Tested on: HEK293
- ASSAY_INFO: Cytotoxicity against HEK293 cells assessed as cell viability at 100 ug/ml
- Format: cell-based
- CONDITION_DETAILS: human
Listing: Cell viability of selected compounds
# value in %; strip the unit string

Exercise: # query: Cell viability of entry COc1ccc2[nH]c(-c3cc4ccc(Br)cc4[nH]3)cc2c1
Key: 72

Exercise: # query: Cell viability of entry Brc1ccc2cc(-c3cc4cc(Br)c(Br)cc4[nH]3)[nH]c2c1
Key: 63

Exercise: # query: Cell viability of entry Brc1ccc2cc(CCc3cc4ccc(Br)cc4[nH]3)[nH]c2c1
Key: 85

Exercise: # query: Cell viability of entry Brc1ccc2cc(-c3cc4ccc(Br)cc4[nH]3)[nH]c2c1
Key: 118

Exercise: # query: Cell viability of entry Brc1ccc2cc(/C=C/c3cc4ccccc4[nH]3)[nH]c2c1
Key: 115

Exercise: # query: Cell viability of entry COCn1c(-c2cc3ccc(Br)cc3[nH]2)cc2cc(Br)ccc21
Key: 73

====

- System: Staphylococcus aureus
- ASSAY_INFO: Antibacterial activity against Staphylococcus aureus ATCC 29213 by two fold serial dilution method
- Assay type: functional
VALUE_KIND: MIC>98 (µg/mL)
# value in µg/mL; strip the unit string

O=[N+]([O-])c1cc(-c2cc3ccccc3[nH]2)ccc1-c1cc2ccc(Br)cc2[nH]1 ... 2
OCCn1c(-c2cc3ccc(Br)cc3[nH]2)cc2cc(Br)ccc21 ... 2

Next compound, please.
Exercise: # query: MIC>98 of entry Brc1ccc2[nH]c(C#Cc3cc4ccc(Br)cc4[nH]3)cc2c1
Key: 16

====

- TARGET_OR_TEST_SYSTEM: Pyruvate kinase PKM (Homo sapiens) (UniProt P14618)
- Sequence (P14618 2-531 limits assumed): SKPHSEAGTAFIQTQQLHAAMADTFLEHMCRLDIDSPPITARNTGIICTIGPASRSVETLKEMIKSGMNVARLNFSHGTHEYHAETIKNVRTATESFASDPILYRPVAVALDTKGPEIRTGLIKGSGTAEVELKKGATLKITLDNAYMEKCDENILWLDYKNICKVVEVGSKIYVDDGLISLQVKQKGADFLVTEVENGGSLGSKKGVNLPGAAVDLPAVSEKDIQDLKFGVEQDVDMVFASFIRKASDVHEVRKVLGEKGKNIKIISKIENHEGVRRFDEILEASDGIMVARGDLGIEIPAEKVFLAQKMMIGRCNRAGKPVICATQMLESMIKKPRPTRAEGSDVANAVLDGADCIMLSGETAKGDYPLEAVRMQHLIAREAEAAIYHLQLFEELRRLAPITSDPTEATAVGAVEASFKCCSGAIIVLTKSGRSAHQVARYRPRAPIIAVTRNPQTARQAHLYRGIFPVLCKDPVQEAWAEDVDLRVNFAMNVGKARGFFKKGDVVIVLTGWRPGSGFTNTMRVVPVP
- ASSAY_INFO: Inhibition human pyruvate kinase M2 at 10 uM
VALUE_KIND: inhibition (%)
# value in %; strip the unit string

Below are worked cases with known answers.
Brc1ccc2cc(CCc3cc4ccc(Br)cc4[nH]3)[nH]c2c1 ... 1.3
CN1CCN(CCn2c(-c3cc4ccc(Br)cc4[nH]3)cc3cc(Br)ccc32)CC1 ... 1.7
Brc1ccc2cc(-c3nc4ccccc4s3)[nH]c2c1 ... 3
O=[N+]([O-])c1cc(-c2cc3ccccc3[nH]2)ccc1-c1cc2ccc(Br)cc2[nH]1 ... 6.8
Brc1ccc2[nH]c(-c3cc4ccc(Br)cc4[nH]3)cc2c1 ... 8.7

Exercise: # query: inhibition of entry Brc1ccc2[nH]c(C#Cc3cc4ccc(Br)cc4[nH]3)cc2c1
Key: 8.7

Exercise: # query: inhibition of entry Brc1ccc2cc(-c3cc4ccc(Br)cc4[nH]3)[nH]c2c1
Key: 0.1

Exercise: # query: inhibition of entry Brc1ccc2[nH]c(-c3cc4cc(Br)ccc4[nH]3)cc2c1
Key: 0.5

Exercise: # query: inhibition of entry Cn1c(-c2cc3ccc(Br)cc3[nH]2)cc2cc(Br)ccc21
Key: 9.1

Exercise: # query: inhibition of entry Brc1ccc2cc(-c3cc4ccccc4o3)[nH]c2c1
Key: 0.4

Exercise: # query: inhibition of entry COc1cc(-c2cc3ccccc3[nH]2)ccc1-c1cc2ccc(Br)cc2[nH]1
Key: 14.6
